pIC50: −log10 of the molar value.
System: MAP4K4 (Homo sapiens, UniProt O95819) | Read-out: pIC50 | Origin: multiple publications
Sequence (O95819 whole entry): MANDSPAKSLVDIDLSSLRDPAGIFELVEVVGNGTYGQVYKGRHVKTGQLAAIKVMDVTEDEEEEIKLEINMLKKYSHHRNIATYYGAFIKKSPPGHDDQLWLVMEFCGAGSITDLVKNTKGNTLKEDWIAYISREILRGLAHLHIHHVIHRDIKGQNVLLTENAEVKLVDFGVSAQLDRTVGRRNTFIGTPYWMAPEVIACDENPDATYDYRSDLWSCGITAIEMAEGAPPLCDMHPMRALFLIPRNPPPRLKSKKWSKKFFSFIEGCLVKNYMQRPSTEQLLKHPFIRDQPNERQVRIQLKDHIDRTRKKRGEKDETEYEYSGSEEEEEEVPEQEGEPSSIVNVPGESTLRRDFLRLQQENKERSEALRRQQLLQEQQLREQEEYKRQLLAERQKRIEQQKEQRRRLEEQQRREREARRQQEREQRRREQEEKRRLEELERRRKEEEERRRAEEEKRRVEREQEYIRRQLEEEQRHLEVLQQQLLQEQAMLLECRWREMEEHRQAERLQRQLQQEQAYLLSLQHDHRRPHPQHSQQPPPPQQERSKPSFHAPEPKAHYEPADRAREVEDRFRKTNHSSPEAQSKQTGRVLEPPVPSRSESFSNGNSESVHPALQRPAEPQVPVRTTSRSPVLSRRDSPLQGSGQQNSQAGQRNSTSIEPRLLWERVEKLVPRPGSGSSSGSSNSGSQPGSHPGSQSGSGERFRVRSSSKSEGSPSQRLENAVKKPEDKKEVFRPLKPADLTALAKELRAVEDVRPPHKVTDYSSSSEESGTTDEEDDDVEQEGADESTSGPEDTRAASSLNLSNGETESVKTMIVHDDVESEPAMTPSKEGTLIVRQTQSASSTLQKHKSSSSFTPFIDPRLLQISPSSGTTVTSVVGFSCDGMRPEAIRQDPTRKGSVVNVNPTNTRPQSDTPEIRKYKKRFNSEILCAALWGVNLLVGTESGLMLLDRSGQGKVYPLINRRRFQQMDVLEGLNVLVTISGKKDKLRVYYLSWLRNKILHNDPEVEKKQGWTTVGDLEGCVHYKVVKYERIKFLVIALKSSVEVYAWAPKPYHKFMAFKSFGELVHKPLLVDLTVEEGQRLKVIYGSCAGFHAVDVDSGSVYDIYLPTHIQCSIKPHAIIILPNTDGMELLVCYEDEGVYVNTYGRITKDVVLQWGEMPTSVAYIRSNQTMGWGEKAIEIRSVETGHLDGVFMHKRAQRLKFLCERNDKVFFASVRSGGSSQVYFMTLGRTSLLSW

For orientation, consider the following solved cases.
Cc1cnc2[nH]cc(Cc3ccc(NCc4c(F)cccc4F)nc3)c2c1 | > 6.00
Cc1c[nH]c2ccc(C(=O)c3cc4cc(O)ccc4[nH]3)cc12 | 6.00
COc1cccc2[nH]c(C(=O)c3ccc4[nH]nc(C)c4c3)cc12 | 6.19
O=C(c1cccc(NS(=O)(=O)C2CCCC2)c1)c1c[nH]c2ncc(Cl)cc12 | ≥ 5.00
Clc1ccc(CNc2nc(Cl)c(Cc3c[nH]c4ncc(Cl)cc34)s2)nc1 | > 6.00

Now for another entry.
Checklist item: pIC50 tested on MAP4K4 (Homo sapiens, UniProt O95819), entry "c1cnc2[nH]cc(-c3ccncc3)c2c1" , value?
≥ 5.00
